testedOn: Tyrosine-protein kinase Lyn (Homo sapiens)
measurementSetup: at 1 µM;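 further: mean percent inhibition of the LYN A splice variant of the kinase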
Description: GSK_PKIS: LYN A (splice variant) mean inhibition at 1 uM [Nanosyn]
We use 20% as the dividing line for inhibition: on or above the line is label 1, below is label 0.

Reference set (7 entries):
Cc1nnc(-c2ccc(C)c(-c3ccc(C(=O)NCc4ccc(Cl)cc4)cc3)c2)o1 label 0
Cc1ccc(C(=O)NC2CCC2)cc1-c1ccc(C(=O)NCC2CC2)cc1 label 0
COc1ccc2ncn(-c3cc(O[C@H](C)c4ccccc4Cl)c(C(N)=O)s3)c2c1 label 0
COc1cc(Nc2ncc3c(C)nc(-c4cccc(C(F)(F)F)c4)n3n2)cc(OC)c1OC label 1
Fc1ccc(-c2ncn(C3CCNCC3)c2-c2ccnc(Oc3ccc(Oc4ccccc4)cc3)n2)cc1 label 0
CN(c1ccc(NC(=O)Nc2c(Cl)cccc2Cl)cc1)c1ccnc(Nc2cccc(CS(C)(=O)=O)c2)n1 label 1
COc1cc2ncn(-c3cc(OCc4cccs4)c(C(N)=O)s3)c2cc1OC label 1

Let us examine a further case.
Determine whether measured inhibition meets or exceeds 20% for COC(=O)Nc1nc2ccc(Sc3ccc(NC(=O)Nc4cc(C(F)(F)F)ccc4F)cc3)cc2[nH]1
label 1
